These entries and their values trace back to ChEMBL document CHEMBL4819103.

Molecular target: Proteasome Macropain subunit MB1 (Homo sapiens) (UniProt P28074)
Sequence (whole entry): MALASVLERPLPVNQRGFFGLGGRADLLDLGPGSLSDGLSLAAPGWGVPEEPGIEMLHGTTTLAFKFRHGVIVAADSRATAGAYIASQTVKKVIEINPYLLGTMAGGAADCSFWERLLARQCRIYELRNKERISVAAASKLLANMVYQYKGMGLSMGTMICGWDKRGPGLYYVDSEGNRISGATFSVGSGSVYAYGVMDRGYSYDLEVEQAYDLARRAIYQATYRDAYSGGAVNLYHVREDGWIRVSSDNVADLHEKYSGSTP
Experiment: Inhibition of beta 5 chymotrypsin-like activity (unknown origin) at 100 uM using Suc-LLVY-AMC as substrate for 90 mins by fluorescence based assay
Parameters: scale not given: the % may be the effect or the level left
assay_metric: Activity (%)

- compound: "Cn1c(=S)[nH]c2cccc(Cl)c21"
  experimental_value: 99
- compound: "Cn1c(S)nc2cc(Cl)ccc21"
  experimental_value: 100
- compound: "N#Cc1nc2cc(Cl)ccc2o1"
  experimental_value: 101
- compound: "Cn1c(S)nc2ccc(Cl)cc21"
  experimental_value: 94
- compound: "S=c1[nH]c2cccc(Cl)c2o1"
  experimental_value: 94
- compound: "Oc1cccc2oc(S)nc12"
  experimental_value: 87
- compound: "Sc1nc2ccccc2o1"
  experimental_value: 116
- compound: "Cn1c(S)nc2ccccc21"
  experimental_value: 91
- compound: "S=c1[nH]c2cccc(Br)c2s1"
  experimental_value: 84
- compound: "N#Cc1nc2ccc(Cl)cc2[nH]1"
  experimental_value: 71
- compound: "N#Cc1nc2cccc(Cl)c2[nH]1"
  experimental_value: 82
- compound: "Sc1nc2ccccc2[nH]1 [2-MERCAPTOBENZIMIDAZOLE]"
  experimental_value: 100
- compound: "CCOc1ccc2[nH]c(S)nc2c1"
  experimental_value: 95

* * *

Target: Proteasome subunit beta type-8 (Homo sapiens) (UniProt P28062)
Assay: Inhibition of human chymotrypsin-like beta 5i subunit of iCP assessed as residual activity using suc-LLVY-AMC as flurogenic substrate at 100 uM for 90 mins by fluorescence-based assay
assay_metric: Activity (%)

- structure_smiles_string: "Cn1c(=S)[nH]c2ccc(N)cc21"
  assay_metric: "Activity"
  measurement_units: "%"
  experimental_value: 67
- structure_smiles_string: "Cn1c(=S)[nH]c2cccc(N)c21"
  assay_metric: "Activity"
  measurement_units: "%"
  experimental_value: 63
- structure_smiles_string: "O=[N+]([O-])c1ccc2nc(S)sc2c1"
  assay_metric: "Activity"
  measurement_units: "%"
  experimental_value: 69
- structure_smiles_string: "CC(=O)Nc1ccc2[nH]c(=S)oc2c1"
  assay_metric: "Activity"
  measurement_units: "%"
  experimental_value: 63

* * *

Biological target: Proteasome subunit beta type-8 (Homo sapiens)
Sequence (P28062 whole entry): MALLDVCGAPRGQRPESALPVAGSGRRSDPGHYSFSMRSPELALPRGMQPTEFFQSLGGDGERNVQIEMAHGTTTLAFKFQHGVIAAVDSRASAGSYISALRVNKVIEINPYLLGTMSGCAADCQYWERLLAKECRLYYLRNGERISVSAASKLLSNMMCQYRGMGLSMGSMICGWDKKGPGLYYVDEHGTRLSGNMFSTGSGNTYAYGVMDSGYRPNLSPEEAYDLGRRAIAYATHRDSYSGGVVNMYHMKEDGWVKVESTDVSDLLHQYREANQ
Test: Inhibition of human chymotrypsin-like beta 5i subunit of iCP using suc-LLVY-AMC as flurogenic substrate for 90 mins by fluorescence-based assay
assay_metric: IC50 (µM)

Answered examples (2):
- structure_smiles_string: "S=c1[nH]c2c(Cl)cccc2s1"
  target_or_test_system: "Proteasome subunit beta type-8 (Homo sapiens)"
  measurement_units: "µM"
  IC50: 43
- structure_smiles_string: "S=c1[nH]c2cccc(Br)c2s1"
  target_or_test_system: "Proteasome subunit beta type-8 (Homo sapiens)"
  measurement_units: "µM"
  IC50: 11

[I] COc1cccc2oc(=S)[nH]c12
[II] CC(=O)Nc1ccc2[nH]c(=S)sc2c1
[III] N#Cc1nc2ccc(Cl)cc2o1
[IV] Cc1ccc2[nH]c(=S)oc2c1
[V] Sc1nc2ccccc2s1
q: Output the entries ranked by IC50 from maximum down to minimum. Answer with the labels in sequence, matching the requested order.
a: II, I, IV, V, III
(II: 130 µM, I: 81 µM, IV: 30 µM, V: 13 µM, III: 9.1 µM)

[P] O=C(CCc1cccnc1)Nc1ccc2[nH]c(=S)sc2c1
[Q] N#Cc1nc2ccccc2o1
q: Record comparison, field IC50: mark the lower of P and Q . Please reply using the label of the selected record.
a: P
(P: 26 µM, Q: 83 µM)

[a] CC(=O)Nc1ccc2[nH]c(=S)n(C)c2c1
[b] N#Cc1nc2ccc(Cl)cc2[nH]1
[c] Cn1c(=S)[nH]c2cccc(Cl)c21
q: Sort the 3 molecules by IC50; largest first, smallest last. Reply: labels, ordered per the request.
a: a, b, c
(a: 149 µM, b: 28 µM, c: 1.8 µM)
